Target: Guanyl-specific ribonuclease T1 (Aspergillus oryzae (strain ATCC 42149 / RIB 40)) (UniProt P00651)
Sequence (P00651 whole entry, looked up): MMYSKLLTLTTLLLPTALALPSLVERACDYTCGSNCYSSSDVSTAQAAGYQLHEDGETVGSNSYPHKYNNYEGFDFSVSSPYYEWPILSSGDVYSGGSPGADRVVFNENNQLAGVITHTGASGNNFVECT
Test: RNase T1 inhibition potency, counter-screen, late-stage follow-up, counter-screen for TPT1 inhibitor project, biochemical, fluorescence polarization, IC50 (AID 2837)
Conditions: RNase T1 cleavage of B-U6G-AF
Active and inactive are the calls of the source.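 How the source made its calls: active means IC50 of 10 µM or lower; inactive means IC50 above 10 µM.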
property-name: IC50

Below, 8 compounds whose answers are already recorded.
NC(=O)c1cc[n+](CC2=C(C(=O)O)N3C(=O)[C@@H](NC(=O)C(c4ccccc4)S(=O)(=O)O)[C@H]3SC2)cc1 (stereo not given in full)	> 49.8 µM (inactive)
CC1=C(C#N)C(=O)N(C2CCS(=O)(=O)C2)C(=O)/C1=C\c1ccco1 (stereo not given)	> 49.8 µM (inactive)
NS(=O)(=O)c1cc(C(=O)NC2CCSc3ccccc32)ccc1Cl (stereo not given)	> 49.8 µM (inactive)
COc1ccc(OC)c(N2C(=O)/C(=C/c3ccco3)C(=O)NC2=S)c1	inactive
Cc1[nH]n(-c2ccc(S(=O)(=O)O)cc2)c(=O)c1N[N-]c1ccc(C2=CC(=O)/C(=N\[N-]c3ccc4c(S(=O)(=O)O)cc(S(=O)(=O)O)c(N)c4c3O)C=C2)cc1O.[Cu+].[Cu+]	> 49.8 µM (inactive)
Cc1ccc(N2C(=O)NC(=O)/C(=C\c3ccc([N+](=O)[O-])o3)C2=O)cc1	inactive
OC(Cn1cncn1)(Cn1cncn1)c1ccc(F)cc1F	> 49.8 µM (inactive)
Cc1ccccc1N1C(=O)/C(=C/c2ccco2)C(=O)NC1=S	inactive

Please fill in: IC50 reported for O=c1oc2c(O)c(O)cc3c(=O)oc4c(O)c(O)cc1c4c23 = > 49.8 µM (inactive)

Please fill in: IC50 reported for Cc1cc(C)n(Cc2ccc(C(=O)NN=Cc3ccc(-c4ccc([N+](=O)[O-])cc4)o3)o2)n1 = inactive
